Test: chemical genetic growth profiling, strain panel (AID 1159580);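 note: tested at 20 µM; growth read once vehicle control cultures reached saturation at 30 °C; 1 = growth at the plate median or of vehicle wells; lower values mean less growth of the strain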
Settings: S. cerevisiae deletion strains, growth OD, locus YLR113W, strain HOG1, active compounds read low
Out of some 5,500 compounds screened, about 2,000 (36%) were called active. Roughly 18% stayed inconclusive and do not appear here. This is one part of the list.

>  <COMPOUND>
O=C(CSCc1nc(-c2ccc(Cl)cc2)cs1)N/N=C\c1cccs1

>  <normalized growth>
0.831 (active)

$$$$
>  <COMPOUND>
CC[N+]1(C)CCCC(OC(=O)C(O)(c2ccccc2)c2ccccc2)C1 (stereo not given)

>  <normalized growth>
1.05 (inactive)

$$$$
>  <COMPOUND>
CC(C)(C)c1csc(NC(=O)c2ccc(Cl)cc2Cl)n1

>  <normalized growth>
0.716 (active)

$$$$
>  <COMPOUND>
Cc1cc2cc3c(C)cc(=O)oc3c(C)c2o1

>  <normalized growth>
1.02 (inactive)

$$$$
>  <COMPOUND>
CC(=O)O[C@H]1C[C@@H](O)C(C)(C)C2C[C@@H](OC(C)=O)[C@]3(C)C(CC[C@@]4(C)[C@H](c5ccoc5)OC(=O)C5OC543)[C@]21C (stereo not given in full)

>  <normalized growth>
1.02 (inactive)

$$$$
>  <COMPOUND>
COC(=O)C1=C(C)NC(C)=C(C(=O)OC)C1c1ccccc1[N+](=O)[O-]

>  <normalized growth>
0.942 (inactive)

$$$$
>  <COMPOUND>
Cc1nc(-c2ccc(C(F)(F)F)cn2)[nH]c(=O)c1Cl

>  <normalized growth>
0.651 (active)

$$$$
>  <COMPOUND>
COC(=O)C1=C(C)NC(C)=C(C(=O)OCCN(C)Cc2ccccc2)C1c1cccc([N+](=O)[O-])c1 (stereo not given)

>  <normalized growth>
0.93 (inactive)

$$$$
>  <COMPOUND>
CC(C)(C)c1csc(NNC(=O)c2ccc(Cl)cc2)n1

>  <normalized growth>
0.756 (active)

$$$$
>  <COMPOUND>
CC(=O)O[C@@H]1CC2C(C)(C)C(=O)CC[C@]2(C)C2CC[C@@]3(C)[C@H](c4ccoc4)OC(=O)C4OC43[C@@]21C (stereo not given in full)

>  <normalized growth>
1.02 (inactive)

$$$$
